Kindly supply the reported selectivity ratio at 18 h values for the records listed here.
Assay: Selectivity ratio of MHC10 for BALB/C mouse erythrocytes to MIC for gram positive bacteria
Type: toxicity
Where a SMILES comes first, the peptide text is derived from it.
Numbers only.

CC[C@H](C)[C@H](NC(=O)[C@H](CCCNC(=N)N)NC(=O)[C@H](CCCCN)NC(=O)[C@H](Cc1c[nH]c2ccccc12)NC(=O)[C@H](Cc1c[nH]c2ccccc12)NC(=O)CN)C(=O)N[C@@H](CCCCN)C(=O)N[C@H](C(=O)N[C@@H](Cc1c[nH]c2ccccc12)C(=O)N[C@@H](Cc1c[nH]c2ccccc12)C(N)=O)[C@@H](C)O (H-GWWKRIKTWW-NH2); 12.8

The record that follows has no selectivity ratio at 18 h shown yet.
Exercise: // query selectivity ratio at 18 h value for entry NCCCC[C@H](NC(=O)[C@H](CCCCN)NC(=O)[C@H](Cc1c[nH]c2ccccc12)NC(=O)[C@H](CCCCN)NC(=O)[C@H](CCCCN)NC(=O)[C@H](Cc1c[nH]c2ccccc12)NC(=O)[C@H](Cc1c[nH]c2ccccc12)NC(=O)[C@@H](N)CCCCN)C(=O)N[C@@H](Cc1c[nH]c2ccccc12)C(=O)N[C@@H](Cc1c[nH]c2ccccc12)C(N)=O (H-KWWKKWKKWW-NH2)
Key: 28.2

---

System: Erythrocyte
Assay: Hemolytic activity in BALB/C mouse erythrocytes incubated for 1 hr by absorbance method
Format: ADME, cell-based
Where a SMILES comes first, the peptide text is derived from it.
QUANTITY NAME: MHC10 (µM)
One number for each entry, in µM.

// input: 2 compounds below; output: MHC10 for each
1. N=C(N)NCCC[C@H](NC(=O)[C@H](CCCCN)NC(=O)[C@H](Cc1c[nH]c2ccccc12)NC(=O)[C@H](Cc1c[nH]c2ccccc12)NC(=O)[C@@H](N)CCCCN)C(=O)N[C@@H](Cc1c[nH]c2ccccc12)C(=O)N[C@@H](CCCCN)C(=O)N[C@@H](CCCCN)C(=O)N[C@@H](Cc1c[nH]c2ccccc12)C(=O)N[C@@H](Cc1c[nH]c2ccccc12)C(N)=O (H-KWWKRWKKWW-NH2)
2. CC[C@H](C)[C@H](NC(=O)[C@H](CCCNC(=N)N)NC(=O)[C@H](CCCCN)NC(=O)[C@H](Cc1c[nH]c2ccccc12)NC(=O)[C@H](Cc1c[nH]c2ccccc12)NC(=O)CN)C(=O)N[C@@H](CCCCN)C(=O)N[C@H](C(=O)N[C@@H](Cc1c[nH]c2ccccc12)C(=O)N[C@@H](Cc1c[nH]c2ccccc12)C(N)=O)[C@@H](C)O (H-GWWKRIKTWW-NH2)

Key:
1. 77.65
2. 102.54

---

Experiment: Selectivity ratio of MHC10 for BALB/C mouse erythrocytes to MIC for gram-negative bacteria
Format: toxicity
Where a SMILES comes first, the peptide text is derived from it.
QUANTITY NAME: selectivity ratio
Numbers only.

CC(C)C[C@H](NC(=O)[C@H](CC(C)C)NC(=O)[C@@H](NC(=O)[C@H](CCCCN)NC(=O)[C@H](Cc1ccccc1)NC(=O)[C@H](CCCNC(=N)N)NC(=O)[C@H](CCCCN)NC(=O)[C@H](CC(C)C)NC(=O)[C@H](CC(C)C)NC(=O)CN)[C@@H](C)O)C(N)=O (H-GLLKRFKTLL-NH2); 6.73
CC(C)C[C@H](NC(=O)[C@H](CC(C)C)NC(=O)[C@@H](NC(=O)[C@H](CCCCN)NC(=O)[C@H](Cc1c[nH]c2ccccc12)NC(=O)[C@H](CCCNC(=N)N)NC(=O)[C@H](CCCCN)NC(=O)[C@H](CC(C)C)NC(=O)[C@H](CC(C)C)NC(=O)CN)[C@@H](C)O)C(N)=O (H-GLLKRWKTLL-NH2); 11.3
CC(C)C[C@H](NC(=O)[C@H](CC(C)C)NC(=O)[C@@H](NC(=O)[C@H](CCCCN)NC(=O)[C@H](C)NC(=O)[C@H](CCCNC(=N)N)NC(=O)[C@H](CCCCN)NC(=O)[C@H](C)NC(=O)[C@H](CC(C)C)NC(=O)CN)[C@@H](C)O)C(N)=O (H-GLAKRAKTLL-NH2); 1

Next up:
Exercise: Consider the molecule shown here: CC(C)C[C@H](NC(=O)CN)C(=O)N[C@@H](CC(C)C)C(=O)N[C@@H](CCCCN)C(=O)N[C@@H](CCCNC(=N)N)C(=O)N[C@@H](CC(C)C)C(=O)N[C@@H](CCCCN)C(=O)N[C@H](C(=O)N[C@@H](CC(C)C)C(=O)N[C@@H](C)C(N)=O)[C@@H](C)O (H-GLLKRLKTLA-NH2) What is its recorded selectivity ratio?
Key: 2.38

---

System: Staphylococcus epidermidis
Assay: Antibacterial activity against Staphylococcus epidermidis ATCC 12228 incubated for 18 hrs by CLSI based broth dilution method
Type: functional
Give measured MIC for each item. Keep answers brief.

Below are some compounds; for each one, tell me its MIC.
1. CO[C@H]1/C=C/O[C@@]2(C)Oc3c(C)c(O)c4c(O)c(c(/C=N/N5CCN(C)CC5)c(O)c4c3C2=O)NC(=O)/C(C)=C\C=C\[C@H](C)[C@H](O)[C@@H](C)[C@@H](O)[C@@H](C)[C@H](OC(C)=O)[C@@H]1C
2. NC[C@H]1O[C@H](O[C@H]2[C@H](O)[C@@H](O[C@H]3O[C@H](CO)[C@@H](O)[C@H](N)[C@H]3O)[C@H](N)C[C@@H]2N)[C@H](O)[C@@H](O)[C@@H]1O

Key:
< 1 µM
< 1 µM

---

Assay: Selectivity ratio of MHC10 for BALB/C mouse erythrocytes to MIC for gram-negative bacteria
Assay type: toxicity
Where a SMILES comes first, the peptide text is derived from it.
I'd appreciate it if you could supply selectivity ratio values for the items below.
Give bare numbers.

Solved cases below.
CC(C)C[C@H](NC(=O)[C@H](C)NC(=O)[C@@H](NC(=O)[C@H](CCCCN)NC(=O)[C@H](C)NC(=O)[C@H](CCCNC(=N)N)NC(=O)[C@H](CCCCN)NC(=O)[C@H](CC(C)C)NC(=O)[C@H](C)NC(=O)CN)[C@@H](C)O)C(N)=O (H-GALKRAKTAL-NH2); 1
CC[C@H](C)[C@H](NC(=O)[C@H](CCCNC(=N)N)NC(=O)[C@H](CCCCN)NC(=O)[C@H](CC(C)C)NC(=O)[C@H](CC(C)C)NC(=O)CN)C(=O)N[C@@H](CCCCN)C(=O)N[C@H](C(=O)N[C@@H](CC(C)C)C(=O)N[C@@H](CC(C)C)C(N)=O)[C@@H](C)O [ANOPLIN] (H-GLLKRIKTLL-NH2); 5.66
CC[C@H](C)[C@H](NC(=O)[C@H](CCCNC(=N)N)NC(=O)[C@H](CCCCN)NC(=O)[C@H](Cc1c[nH]c2ccccc12)NC(=O)[C@H](Cc1c[nH]c2ccccc12)NC(=O)CN)C(=O)N[C@@H](CCCCN)C(=O)N[C@H](C(=O)N[C@@H](Cc1c[nH]c2ccccc12)C(=O)N[C@@H](Cc1c[nH]c2ccccc12)C(N)=O)[C@@H](C)O (H-GWWKRIKTWW-NH2); 15.3

Could you report selectivity ratio for every entry in the following list?
1. NCCCC[C@H](NC(=O)[C@H](CCCCN)NC(=O)[C@H](Cc1c[nH]c2ccccc12)NC(=O)[C@H](CCCCN)NC(=O)[C@H](CCCCN)NC(=O)[C@H](Cc1c[nH]c2ccccc12)NC(=O)[C@H](Cc1c[nH]c2ccccc12)NC(=O)[C@@H](N)CCCCN)C(=O)N[C@@H](Cc1c[nH]c2ccccc12)C(=O)N[C@@H](Cc1c[nH]c2ccccc12)C(N)=O (H-KWWKKWKKWW-NH2)
2. CC(C)C[C@H](NC(=O)[C@H](Cc1c[nH]c2ccccc12)NC(=O)CN)C(=O)N[C@@H](CCCCN)C(=O)N[C@@H](CCCNC(=N)N)C(=O)N[C@@H](Cc1c[nH]c2ccccc12)C(=O)N[C@@H](CCCCN)C(=O)N[C@H](C(=O)N[C@@H](CC(C)C)C(=O)N[C@@H](Cc1c[nH]c2ccccc12)C(N)=O)[C@@H](C)O (H-GWLKRWKTLW-NH2)
3. N=C(N)NCCC[C@H](NC(=O)[C@H](CCCCN)NC(=O)[C@H](Cc1c[nH]c2ccccc12)NC(=O)[C@H](Cc1c[nH]c2ccccc12)NC(=O)[C@@H](N)CCCCN)C(=O)N[C@@H](Cc1c[nH]c2ccccc12)C(=O)N[C@@H](CCCCN)C(=O)N[C@@H](CCCCN)C(=O)N[C@@H](Cc1c[nH]c2ccccc12)C(=O)N[C@@H](Cc1c[nH]c2ccccc12)C(N)=O (H-KWWKRWKKWW-NH2)

Key:
28.2
20
6.87

---

Would you mind telling me the reported selectivity ratio at 18 h of each entry?
Assay: Selectivity ratio of MHC10 for BALB/C mouse erythrocytes to MIC for gram positive bacteria
Type: toxicity
Where a SMILES comes first, the peptide text is derived from it.
Numbers only.

CC[C@H](C)[C@H](NC(=O)[C@H](CCCNC(=N)N)NC(=O)[C@H](CCCNC(=N)N)NC(=O)[C@H](Cc1ccccc1)NC(=O)[C@H](Cc1ccccc1)NC(=O)CN)C(=O)N[C@@H](CCCCN)C(=O)N[C@H](C(=O)N[C@@H](Cc1ccccc1)C(=O)N[C@@H](Cc1ccccc1)C(N)=O)[C@@H](C)O (H-GFFRRIKTFF-NH2); 16

Exercise: For CC(C)C[C@H](NC(=O)CN)C(=O)N[C@@H](CC(C)C)C(=O)N[C@@H](CCCCN)C(=O)N[C@@H](CCCNC(=N)N)C(=O)N[C@@H](CC(C)C)C(=O)N[C@@H](CCCCN)C(=O)N[C@H](C(=O)N[C@@H](CC(C)C)C(=O)N[C@@H](C)C(N)=O)[C@@H](C)O (H-GLLKRLKTLA-NH2) , what is its reported selectivity ratio at 18 h?
Key: 4
